# Tested on: native geph
# assay_notes: µSPOT peptide microarray binding assay with native geph from mouse brain lysate
# assay_context: µSPOT peptide microarray, GlyRβ full positional scan, native geph from mouse brain lysate; intensity normalised to wild-type sequence DLRSNDFSIVGSLPR (=1)
property: Native geph Binding Intensity [norm.] (norm.)

Answered cases to consult:
DMRSNDFSIVGSLPR [GlyRβ_Full_Positional_Scan_038]    1.09
DLRSNDFSIRGSLPR [GlyRβ_Full_Positional_Scan_192, GlyR β 414-428 variant V423R]    0.21

[P] DLRSNDFSIHGSLPR [GlyRβ_Full_Positional_Scan_193, GlyR β 414-428 variant V423H]
[Q] DLRSNMFSIVGSLPR [GlyRβ_Full_Positional_Scan_118]
// which entry has the larger Native geph Binding Intensity [norm.] value, P or Q ? Give the label of your selection.
Q

----------
# Test system: FL-geph
# assay_notes: µSPOT peptide microarray binding assay with full-length geph
# assay_context: µSPOT peptide microarray, GlyRβ full positional scan, intensity normalised to wild-type sequence DLRSNDFSIVGSLPR (=1)
property: Fl-geph Binding Intensity [norm.] (norm.)

The following sequences have reported results that may help.
DLRENDFSIVGSLPR [GlyRβ_Full_Positional_Scan_071]    0.97
DLRRNDFSIVGSLPR [GlyRβ_Full_Positional_Scan_072]    1.06
DLRPNDFSIVGSLPR [GlyRβ_Full_Positional_Scan_065]    0.64
DLRSNDFWIVGSLPR [GlyRβ_Full_Positional_Scan_148, GlyR β 414-428 variant S421W]    0.79
DLRSNIFSIVGSLPR [GlyRβ_Full_Positional_Scan_103]    0.97
DLRSNDFSYVGSLPR [GlyRβ_Full_Positional_Scan_169, GlyR β 414-428 variant I422Y]    0.84

[1] DLRSNKFSIVGSLPR [GlyRβ_Full_Positional_Scan_114]
[2] DLRSNDFVIVGSLPR [GlyRβ_Full_Positional_Scan_146, GlyR β 414-428 variant S421V]
// which entry has the larger Fl-geph Binding Intensity [norm.] value, 1 or 2 ? Response format: the label of the selected entry.
1
(1: 0.98 norm., 2: 0.61 norm.)

[1] DPRSNDFSIVGSLPR [GlyRβ_Full_Positional_Scan_025]
[2] DLRSNYFSIVGSLPR [GlyRβ_Full_Positional_Scan_109]
In terms of reported Fl-geph Binding Intensity [norm.], does 1 or 2 have the smaller number? State your choice using its label.
2
(2: 0.7 norm., 1: 1.01 norm.)

[I] DLRINDFSIVGSLPR [GlyRβ_Full_Positional_Scan_063]
[II] DLRSNDNSIVGSLPR [GlyRβ_Full_Positional_Scan_139, GlyR β 414-428 variant F420N]
Looking only at measured Fl-geph Binding Intensity [norm.], which entry is lower, I or II ? Identify your pick by its label.
II
(II: 0.63 norm., I: 0.91 norm.)

[a] NLRSNDFSIVGSLPR [GlyRβ_Full_Positional_Scan_019]
[b] DLRSNDFSEVGSLPR [GlyRβ_Full_Positional_Scan_171, GlyR β 414-428 variant I422E]
[c] DLRSNDFSIWGSLPR [GlyRβ_Full_Positional_Scan_188, GlyR β 414-428 variant V423W]
Place the items in sequence of falling Fl-geph Binding Intensity [norm.]. API: response body holds the labels in the requested order.
a, c, b

[A] DSRSNDFSIVGSLPR [GlyRβ_Full_Positional_Scan_035]
[B] DLRSNDFSIDGSLPR [GlyRβ_Full_Positional_Scan_190, GlyR β 414-428 variant V423D]
[C] DLRSNDFSICGSLPR [GlyRβ_Full_Positional_Scan_197, GlyR β 414-428 variant V423C]
# rank_down: sort by Fl-geph Binding Intensity [norm.], max first Thanks in advance for listing the labels in the requested order.
A, C, B
(A: 0.97 norm., C: 0.67 norm., B: 0.35 norm.)

[I] DLGSNDFSIVGSLPR [GlyRβ_Full_Positional_Scan_042]
[II] DLRSNDFSGVGSLPR [GlyRβ_Full_Positional_Scan_162, GlyR β 414-428 variant I422G]
Which of the two gives a bigger number for Fl-geph Binding Intensity [norm.]: I or II ? Give the label of your selection.
I
(I: 1.02 norm., II: 0.53 norm.)

[1] DTRSNDFSIVGSLPR [GlyRβ_Full_Positional_Scan_036]
[2] DLRSNDFSWVGSLPR [GlyRβ_Full_Positional_Scan_168, GlyR β 414-428 variant I422W]
Between the two listed entries 1 and 2 , which has its Fl-geph Binding Intensity [norm.] at the higher number? Give the label under which the chosen entry appears.
1

----------
# Tested on: gephE
# assay_notes: µSPOT peptide microarray binding assay with recombinant gephE
# assay_context: µSPOT peptide microarray, GlyRβ full positional scan, recombinant gephE; intensity normalised to wild-type sequence DLRSNDFSIVGSLPR (=1)
property: gephE Binding Intensity [norm.] (norm.)

Some entries whose results are on file:
DLRSNDFNIVGSLPR [GlyRβ_Full_Positional_Scan_159, GlyR β 414-428 variant S421N]    0.72
DIRSNDFSIVGSLPR [GlyRβ_Full_Positional_Scan_023]    0.95

[1] DLRSGDFSIVGSLPR [GlyRβ_Full_Positional_Scan_082]
[2] DLRSNDFSIVPSLPR [GlyRβ_Full_Positional_Scan_205, GlyR β 414-428 variant G424P]
Which shows the larger gephE Binding Intensity [norm.] value: 1 or 2 ? Bench note: the answer is the label of the chosen record.
1
(1: 0.9 norm., 2: 0.41 norm.)

----------
# System: gephE
# assay_notes: µSPOT peptide microarray binding assay with recombinant gephE
# assay_context: µSPOT peptide microarray, GlyRβ full positional scan, recombinant gephE; intensity normalised to wild-type sequence DLRSNDFSIVGSLPR (=1)
property: gephE Binding Intensity [norm.] (norm.)

Example entries and their recorded answers appear below.
DLRSNCFSIVGSLPR [GlyRβ_Full_Positional_Scan_117]    0.81
DLWSNDFSIVGSLPR [GlyRβ_Full_Positional_Scan_048]    0.86
WLRSNDFSIVGSLPR [GlyRβ_Full_Positional_Scan_008]    0.91
DLRINDFSIVGSLPR [GlyRβ_Full_Positional_Scan_063]    0.92
DLRSTDFSIVGSLPR [GlyRβ_Full_Positional_Scan_096]    1.06

[1] DLRSNHFSIVGSLPR [GlyRβ_Full_Positional_Scan_113]
[2] DLRSNDKSIVGSLPR [GlyRβ_Full_Positional_Scan_134, GlyR β 414-428 variant F420K]
[3] DLRSNDFSIVWSLPR [GlyRβ_Full_Positional_Scan_208, GlyR β 414-428 variant G424W]
Let's sort these by gephE Binding Intensity [norm.], smallest first. Go ahead? Output spec: a listing of the labels in the requested order.
3, 2, 1
(3: 0.32 norm., 2: 0.53 norm., 1: 0.86 norm.)

----------
# System: native geph
# assay_notes: µSPOT peptide microarray binding assay with native geph from mouse brain lysate
# assay_context: µSPOT peptide microarray, GlyRβ full positional scan, native geph from mouse brain lysate; intensity normalised to wild-type sequence DLRSNDFSIVGSLPR (=1)
property: Native geph Binding Intensity [norm.] (norm.)

Example entries and their recorded answers appear below.
DLRSVDFSIVGSLPR [GlyRβ_Full_Positional_Scan_086]    0.72
DLRSNDFSIWGSLPR [GlyRβ_Full_Positional_Scan_188, GlyR β 414-428 variant V423W]    0.27
DLRSLDFSIVGSLPR [GlyRβ_Full_Positional_Scan_084]    0.69
DLRSNDFSPVGSLPR [GlyRβ_Full_Positional_Scan_165, GlyR β 414-428 variant I422P]    0.48

[A] DLRSNDFSDVGSLPR [GlyRβ_Full_Positional_Scan_170, GlyR β 414-428 variant I422D]
[B] DLRSNHFSIVGSLPR [GlyRβ_Full_Positional_Scan_113]
Of the two listed items, A and B , which carries the larger Native geph Binding Intensity [norm.] figure? Field: selected label. Fill in the label of the entry you choose.
B

----------
# Test system: gephE
# assay_notes: µSPOT peptide microarray binding assay with recombinant gephE
# assay_context: µSPOT peptide microarray, GlyRβ full positional scan, recombinant gephE; intensity normalised to wild-type sequence DLRSNDFSIVGSLPR (=1)
property: gephE Binding Intensity [norm.] (norm.)

DLRSNDFSKVGSLPR [GlyRβ_Full_Positional_Scan_174, GlyR β 414-428 variant I422K]    0.47
DLRSNDFSIVYSLPR [GlyRβ_Full_Positional_Scan_209, GlyR β 414-428 variant G424Y]    0.41

[P] DLRSIDFSIVGSLPR [GlyRβ_Full_Positional_Scan_083]
[Q] DLRSNDFSTVGSLPR [GlyRβ_Full_Positional_Scan_176, GlyR β 414-428 variant I422T]
Given the listed records, identify the one among P and Q with higher gephE Binding Intensity [norm.]. Kindly give the label for the entry you pick.
P
